Biological target: hTAAR1 (Homo sapiens, UniProt Q96RJ0)
Construct: expressed in transfected cells; host or cells: HEK-293T (ATCC)
Sequence (Q96RJ0 1-339): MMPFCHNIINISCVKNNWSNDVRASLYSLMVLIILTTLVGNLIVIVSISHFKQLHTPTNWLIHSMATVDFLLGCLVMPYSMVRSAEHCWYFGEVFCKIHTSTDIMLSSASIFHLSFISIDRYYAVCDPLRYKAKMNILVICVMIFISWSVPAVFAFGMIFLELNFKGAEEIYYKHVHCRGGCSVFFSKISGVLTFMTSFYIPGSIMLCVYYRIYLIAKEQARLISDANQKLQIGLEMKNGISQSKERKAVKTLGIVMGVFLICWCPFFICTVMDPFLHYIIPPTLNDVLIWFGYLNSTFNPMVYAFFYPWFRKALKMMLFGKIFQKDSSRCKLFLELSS
Experiment: Functional activity at hTAAR1, cAMP BRET biosensor in HEK-293T cells
Assay type: cell-based
Details: dose–response 10 nM to 10 μM; means of 4 experiments, errors within 10%; read-out: hTAAR1 EC50
measured-parameter: EC50 (µM)

* COc1ccccc1N1CCN(C(=N)N)CC1.Cl [Compound 6] | 0.093
* Cl.N=C(N)N1CCN(c2ccccc2Cl)CC1 [Compound 3] | 0.16
* Cl.N=C(N)N1CCN(c2ccc(Cl)c(Cl)c2)CC1 [Compound 16] | 0.071
* Cl.N=C(N)N1CCN(c2ccccc2)CC1 [Compound 1] | 0.37

Recorded values, source paper PMC7697893.
